Data provenance is ChEMBL document CHEMBL1147665.

- Test system: Staphylococcus epidermidis
- experiment: Antibacterial activity against Staphylococcus epidermidis
- Format: functional
measurementKind: MIC90 (µg/mL)

>>> readoutvalue("CO/N=C(\\C(=O)N[C@@H]1C(=O)N2C(C(=O)O)=C(CSc3nc(=O)c(O)nn3C)CS[C@H]12)c1csc(N)n1")
32
>>> readoutvalue("CCOC(=O)/C=C1\\NC(=O)[C@@H]1[C@@H](C)OC(=O)c1cc(O)c(O)c(O)c1")
64
>>> readoutvalue("COc1cc(C(=O)O[C@H](C)[C@H]2C(=O)N/C2=C\\C(=O)OCc2ccccc2)cc(OC)c1OC")
16
>>> readoutvalue("CCOC(=O)/C=C1\\NC(=O)[C@@H]1Cl")
32
>>> readoutvalue("C[C@@H](O)[C@H]1C(=O)N2C(C(=O)O)=C(S[C@@H]3CN[C@H](C(=O)N(C)C)C3)[C@H](C)[C@H]12")
64
>>> readoutvalue("CCOC(=O)/C=C1/NC(=O)[C@@H]1[C@@H](C)O[Si](C)(C)C(C)(C)C")
128
